system: NCI-H23 lung; experiment: NCI tumour cell line growth inhibition, 48 h
As shown below, each of these molecules has a reported GI50 value.

Answered cases to consult:
{"molecule": "CC(C)Nc1ccc(Nc2ccccc2)cc1", "assayed.target": "NCI-H23 lung", "value": "14.2 µM"}
{"molecule": "CC(C)(O)C#Cc1ccc(/C=C/C(=O)c2ccccc2)s1", "assayed.target": "NCI-H23 lung", "value": "16.9 µM"}
{"molecule": "COc1cc2c(cc1OCCCCCOc1cc3c(cc1OC)C(=O)N1CC(F)C[C@H]1C=N3)N=C[C@@H]1CC(F)CN1C2=O (stereo not given in full)", "assayed.target": "NCI-H23 lung", "value": "< 0.0373 µM"}
{"molecule": "N#Cc1ncc(-c2ccc(C(F)(F)F)cc2)c(NCc2cc(C(F)(F)F)cc(C(F)(F)F)c2)n1", "assayed.target": "NCI-H23 lung", "value": "3.22 µM"}
{"molecule": "CCCCCc1nc2c(c3c1CCCC3)CCCC2", "assayed.target": "NCI-H23 lung", "value": "5.06 µM"}

Param item = COc1cccc(C2C3=C(COC3=O)N(CCO)c3cc(OC)ccc32)c1 (stereo not given) ; retrieve measured GI50.
0.172 µM

Value lookup for GI50; key = Cc1cc(NCCCNc2ccnc3cc(Cl)ccc23)nc(N2CCN(C)CC2)n1
5.9 µM

Bench note: what GI50 did COc1cc2cc(C(=O)CCC(=O)O)sc2cc1OC show?
> 100 µM

Which GI50 value belongs to CC/C(=C(/c1ccc(OCCN(C)C)cc1)c1ccc(OC(=O)CCC(=O)c2c(C)[nH]c(/C=C3\N=C(c4ccc[nH]4)C=C3OC)c2C)cc1)c1ccccc1 ?
4.02 µM

Recorded GI50 of CCOC(=O)c1sc2ncn(Cc3cccc(Br)c3)c(=O)c2c1C , please.
66.7 µM

###

test system: ACHN renal; assay: NCI tumour cell line growth inhibition, 48 h
value.kind: TGI

Recorded results for 9 compounds are shown here.
{"compound": "Cc1cc(Cl)cc2c(N=Nc3ccccc3[N+](=O)[O-])c(O)[nH]c12", "TGI": "> 100 µM"}
{"compound": "O=C(O)c1cc(=O)[nH]c(SCc2ccccc2)n1", "TGI": "> 100 µM"}
{"compound": "Cc1ccc2c(c1)c1nc3cc(C)c(C)cc3nc1n2CCN(C)C", "TGI": "5.92 µM"}
{"compound": "N#CC(/C(=N/NC(=O)C(=O)NN)C(=O)Nc1nc([N+](=O)[O-])cs1)c1ccc(Cl)cc1 (stereo not given)", "TGI": "> 100 µM"}
{"compound": "Cc1oc2c(C)c3oc(=O)cc(C)c3cc2c1CNC(=O)[C@@H]1OCCOCCOCCOCCOCCOC1C(=O)O (stereo not given in full)", "TGI": "> 100 µM"}
{"compound": "COCO[C@@H]1C[C@H]2C(=O)N(COC)c3ccccc3C(=O)N2C1", "TGI": "> 100 µM"}
{"compound": "O=C1CS(=O)(=O)C(c2cccc(Oc3ccccc3)c2)N1c1cccc(Cl)c1 (stereo not given)", "TGI": "59.5 µM"}
{"compound": "O=C(C=Nc1ccccc1C(=O)[O-])c1cccs1.O=C(C=Nc1ccccc1C(=O)[O-])c1cccs1.[Co+2]", "TGI": "> 100 µM"}
{"compound": "O=c1ccc(N=Nc2ccc([N+](=O)[O-])cc2)ccc1O", "TGI": "> 100 µM"}

Next compound, please.
Query for ACHN renal: what TGI does the record show for COC(=O)C1CCC(Nc2ccc(C)cc2C)=N1 (stereo not given) ?
> 100 µM
